# Experimental System: T1, human glycophorin A on human red blood cells or red blood cell membranes (human, UniProt P02724 20-150)
# T1 construct: whole, on cells; also called hRBC; human RBC membranes
# T1 sequence (looked up): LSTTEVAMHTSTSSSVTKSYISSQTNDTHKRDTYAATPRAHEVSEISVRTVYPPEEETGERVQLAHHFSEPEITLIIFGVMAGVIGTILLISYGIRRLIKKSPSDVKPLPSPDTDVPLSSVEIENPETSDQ
# Test Name: Fab on intact human RBC, unbound Fab by ELISA; 120 min after 200-fold dilution
Readout Kind: percentage of input antibody bound (%)
Numbers only, in %.

// worked examples, percentage of input antibody bound included
>  <Binder>
TPP-7797, affinity matured 6C12 Fab (Fab, V domains shown, Tested as Fab) VH: EVQLVQSGAEVKKPGASVKVSCKASGYTFTTYTIHWVRQAPGQGLEWMGYINPSSGYTRYNPKFKGRVTMTRDKSTSTAYMELRSLRSDDTAVYYCWTGRRDYWGQGTTVTVSS VL: DIQLTQSPSFLSASVGDRVTITCRASSSVRYIYWFQQKPGKAPKLLIYATSFRQSGVPSRFSGSGSGTEYTLTISSLQPEDFATYYCHQRNSFPYTFGQGTKLEIK

>  <Quantitative Result>
92

$$$$
>  <Binder>
TPP-7790, affinity matured 6C12 Fab (Fab, V domains shown, Tested as Fab with a 6xHIS tag) VH: EVQLVQSGAEVKKPGASVKVSCKASGYTFTTYAIHWVRQAPGQGLEWMGYINPSSGYTRYNPKFKHRVTMTRDKSTSTAYMELRSLRSDDTAVYYCWTGTRDYWGQGTTVTVSS VL: DIQLTQSPSFLSASVGDRVTITCRASSSVRYIYWFQQKPGKAPKLLIYATSFLQSGVPSRFSGSGSGTEYTLTISSLQPEDFATYYCHQRNSFPYTFGQGTKLEIK

>  <Quantitative Result>
88

$$$$
>  <Binder>
TPP-7781, affinity matured 6C12 Fab (Fab, V domains shown, Tested as Fab) VH: EVQLVQSGAEVKKPGASVKVSCKASGYTFTTYTIHWVRQAPGQGLEWMGYINPKSGWTRYNPKFKGRVTMTRDKSTSTAYMELRSLRSDDTAVYYCQTGTRDYWGQGTTVTVSS VL: DIQLTQSPSFLSASVGDRVTITCRASSSVRYIYWFQQKPGKAPKLLIYATSTLQSGVPSRFSGSGSGTEYTLTISSLQPEDFATYYCHQRNSFPYTFGQGTKLEIK

>  <Quantitative Result>
59

$$$$

Batch of 6 binders: report percentage of input antibody bound for each.
1. TPP-7795, affinity matured 6C12 Fab (Fab, V domains shown, Tested as Fab) VH: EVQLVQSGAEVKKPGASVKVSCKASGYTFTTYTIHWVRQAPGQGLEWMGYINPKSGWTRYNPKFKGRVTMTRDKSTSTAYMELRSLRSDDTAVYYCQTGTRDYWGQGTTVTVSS VL: DIQLTQSPSFLSASVGDRVTITCRASSSVSYIYWFQQKPGKAPKLLIYATSFLQSGVPSRFSGSGSGTEYTLTISSLQPEDFATYYCHQRNSFPYTFGQGTKLEIK
2. TPP-7796, affinity matured 6C12 Fab (Fab, V domains shown, Tested as Fab) VH: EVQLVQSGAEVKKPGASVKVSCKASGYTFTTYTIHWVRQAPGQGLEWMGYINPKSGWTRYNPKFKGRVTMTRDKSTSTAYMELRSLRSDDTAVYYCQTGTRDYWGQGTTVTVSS VL: DIQLTQSPSFLSASVGDRVTITCRASSSVSYIYWFQQKPGKAPKLLIYATSTLQSGVPSRFSGSGSGTEYTLTISSLQPEDFATYYCHQRNSFPYTFGQGTKLEIK
3. TPP-7794, affinity matured 6C12 Fab (Fab, V domains shown, Tested as Fab) VH: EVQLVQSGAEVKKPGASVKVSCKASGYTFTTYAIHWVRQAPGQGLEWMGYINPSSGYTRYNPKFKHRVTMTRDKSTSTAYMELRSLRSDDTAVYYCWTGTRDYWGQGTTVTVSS VL: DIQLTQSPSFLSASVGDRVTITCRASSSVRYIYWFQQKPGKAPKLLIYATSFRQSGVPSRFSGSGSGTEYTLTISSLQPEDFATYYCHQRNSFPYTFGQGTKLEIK
4. TPP-7783, affinity matured 6C12 Fab (Fab, V domains shown, Tested as Fab) VH: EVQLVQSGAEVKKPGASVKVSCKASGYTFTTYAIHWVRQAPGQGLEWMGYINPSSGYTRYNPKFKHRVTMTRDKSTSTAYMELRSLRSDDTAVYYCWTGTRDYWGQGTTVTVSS VL: DIQLTQSPSFLSASVGDRVTITCRASSSVRYIYWFQQKPGKAPKLLIYATSFRRSGVPSRFSGSGSGTEYTLTISSLQPEDFATYYCHQRNSFPYTFGQGTKLEIK
5. TPP-7778, affinity matured 6C12 Fab (Fab, V domains shown, Tested as Fab) VH: EVQLVQSGAEVKKPGASVKVSCKASGYTFTTYAIHWVRQAPGQGLEWMGYINPSSGYTRYNPKFKHRVTMTRDKSTSTAYMELRSLRSDDTAVYYCQTGTRDYWGQGTTVTVSS VL: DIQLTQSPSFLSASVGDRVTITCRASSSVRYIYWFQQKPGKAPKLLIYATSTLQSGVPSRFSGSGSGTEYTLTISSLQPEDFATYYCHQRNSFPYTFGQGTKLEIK
6. TPP-7782, affinity matured 6C12 Fab (Fab, V domains shown, Tested as Fab) VH: EVQLVQSGAEVKKPGASVKVSCKASGYTFTTYTIHWVRQAPGQGLEWMGYINPSSGYTRYNPKFKGRVTMTRDKSTSTAYMELRSLRSDDTAVYYCQTGTRDYWGQGTTVTVSS VL: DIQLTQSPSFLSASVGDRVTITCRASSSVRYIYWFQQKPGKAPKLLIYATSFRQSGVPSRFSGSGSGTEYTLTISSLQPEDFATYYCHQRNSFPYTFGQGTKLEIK

Reply |
63
13
90
85
64
77
